# Neutralization IC50, H3-Wy03 listing for each entry below
Biological target: HA of A/Wyoming/03/03 (H3N2) (influenza A virus)
Experiment: cell-based or functional assay
Report as a plain number; the unit µg/mL is understood.

>  <binder>
Antibody 6 (antibody, V domains shown) VH: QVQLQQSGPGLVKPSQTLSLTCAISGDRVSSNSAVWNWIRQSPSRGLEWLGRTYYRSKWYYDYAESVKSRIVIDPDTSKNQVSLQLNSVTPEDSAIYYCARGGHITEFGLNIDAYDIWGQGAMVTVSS VL: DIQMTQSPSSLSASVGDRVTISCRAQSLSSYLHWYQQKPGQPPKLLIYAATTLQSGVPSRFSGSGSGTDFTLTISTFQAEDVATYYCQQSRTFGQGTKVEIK

>  <Neutralization IC50, H3-Wy03 (µg/mL)>
4.7

$$$$

Item under review: Antibody 10 (antibody, V domains shown) VH: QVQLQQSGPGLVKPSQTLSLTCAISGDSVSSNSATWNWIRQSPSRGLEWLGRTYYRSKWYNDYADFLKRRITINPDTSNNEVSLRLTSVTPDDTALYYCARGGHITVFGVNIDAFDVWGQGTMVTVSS VL: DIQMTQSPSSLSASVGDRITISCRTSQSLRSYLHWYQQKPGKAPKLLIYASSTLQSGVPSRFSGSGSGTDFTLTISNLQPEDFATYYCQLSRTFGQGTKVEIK . Reported Neutralization IC50, H3-Wy03? 1.52
